All values here come from PubChem BioAssay (NCI).

Test: NCI Yeast Anticancer Drug Screen. Data for the bub3 strain (AID 167)
Conditions: S. cerevisiae bub3 mutant strain, at 5.0 µM (retest, dose inferred, filed as 0.5)
The panel holds about 79,000 compounds, 15% with a hit somewhere; the sample as a whole holds those more often. Active and inactive are the calls of the source. Rule as the data show it: active = growth inhibition above about 70%; inactive = the rest.
Possible outcomes: active, inactive

O=C(O)CCCC1CCCc2c1ccc1ccccc21 (stereo not drawn)	inactive
CC(C)c1ccc(NC(=S)NC(=O)c2ccccc2)cc1	inactive
O=C(NNc1ccccc1)c1ccc(Cl)c(Cl)c1	inactive
O=C(O)Cc1cc(F)ccc1C(=O)O	inactive
S=c1sc2c(s1)SCCS2	inactive
CCCC(O)C1CC(C(C)C)CCC1C (stereo not drawn)	inactive
COC1CCC(O)C(/C=C/[N+](=O)[O-])C1 (stereo not drawn)	active
COC1=C(OC)C(=O)C(Sc2ccc3ccccc3c2)=CC1=O	inactive
CCCC(=O)Oc1ccc(/C=N/NC(N)=S)nc1	inactive
O=C(C[n+]1ccc2ccccc2c1)c1ccc2ccccc2c1	inactive
CC(/C=C/c1ccccc1)=N\NC(N)=S	inactive
COc1ccc(C2C3=C(COC3=O)OC(C)(C)Oc3cc4c(cc32)OCO4)cc1OC (stereo not drawn)	inactive
CC[N+]1(C)CCC(O)(c2ccc(OC)cc2)C(C(=O)c2ccc(OC)cc2)C1 (stereo not drawn)	inactive
